Molecular target: T1, orthogonal hCD122 receptor (hoRb), hCD122 with H133D and Y134F (human, UniProt P14784 27-550); note: reference of the scale not given here
T1 sequence: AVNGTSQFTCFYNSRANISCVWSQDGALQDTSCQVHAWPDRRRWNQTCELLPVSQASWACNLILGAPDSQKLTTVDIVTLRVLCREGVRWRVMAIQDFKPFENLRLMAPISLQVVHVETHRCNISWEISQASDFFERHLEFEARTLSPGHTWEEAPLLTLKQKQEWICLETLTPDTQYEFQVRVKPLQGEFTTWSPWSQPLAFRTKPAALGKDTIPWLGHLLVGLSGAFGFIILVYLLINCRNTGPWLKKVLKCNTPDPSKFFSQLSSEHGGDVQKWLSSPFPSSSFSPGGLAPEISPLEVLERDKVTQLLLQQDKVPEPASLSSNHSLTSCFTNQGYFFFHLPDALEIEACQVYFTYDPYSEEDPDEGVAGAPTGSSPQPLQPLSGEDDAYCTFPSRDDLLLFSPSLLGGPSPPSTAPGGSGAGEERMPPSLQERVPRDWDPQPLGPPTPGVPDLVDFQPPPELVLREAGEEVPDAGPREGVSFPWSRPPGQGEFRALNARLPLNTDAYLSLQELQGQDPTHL
Assay: cell-based or functional assay
Lab note: compare Relative Proliferation Fold Change 3F8 1:10 against 50 fold. Equal or greater, write 1. Smaller, write -1.

[[record]]
binder = "SQVLEA (ligand) APTSSSTKKTQLQLSQLLVLLEAILNGINNYKNPKLTRMLTFKFYMPKKATELKHLQCLEEELKPLEEVLNLAQSKNFHLRPRDLISNINVIVLELKGSETTFMCEYADETATIVEFLNRWITFCQSIISTLT"
label_class = -1

[[record]]
binder = "Q126H, SQVLKA (ligand) APTSSSTKKTQLQLSQLLVLLKAILNGINNYKNPKLTRMLTFKFYMPKKATELKHLQCLEEELKPLEEVLNLAQSKNFHLRPRDLISNINVIVLELKGSETTFMCEYADETATIVEFLNRWITFCHSIISTLT"
label_class = 1

[[record]]
binder = "L18S, SQVLKA (ligand) APTSSSTKKTQLQLSQLSVLLKAILNGINNYKNPKLTRMLTFKFYMPKKATELKHLQCLEEELKPLEEVLNLAQSKNFHLRPRDLISNINVIVLELKGSETTFMCEYADETATIVEFLNRWITFCQSIISTLT"
label_class = 1

[[record]]
binder = "SQVLHA (ligand) APTSSSTKKTQLQLSQLLVLLHAILNGINNYKNPKLTRMLTFKFYMPKKATELKHLQCLEEELKPLEEVLNLAQSKNFHLRPRDLISNINVIVLELKGSETTFMCEYADETATIVEFLNRWITFCQSIISTLT"
label_class = 1

[[record]]
binder = "L18T, SQVLKA (ligand) APTSSSTKKTQLQLSQLTVLLKAILNGINNYKNPKLTRMLTFKFYMPKKATELKHLQCLEEELKPLEEVLNLAQSKNFHLRPRDLISNINVIVLELKGSETTFMCEYADETATIVEFLNRWITFCQSIISTLT"
label_class = -1


Now consider the entry below.
Please tell me: is the binder G27S, SQVLKA (ligand) APTSSSTKKTQLQLSQLLVLLKAILNSINNYKNPKLTRMLTFKFYMPKKATELKHLQCLEEELKPLEEVLNLAQSKNFHLRPRDLISNINVIVLELKGSETTFMCEYADETATIVEFLNRWITFCQSIISTLT at or over 50 fold in terms of Relative Proliferation Fold Change 3F8 1:10?
-1
